src = PubChem BioAssay (NCI)

tested on: T-47D breast; test: NCI-60 one-dose screen, 48 h; conditions: 10 µM unless noted
About 83,000 compounds went through this panel and 20% of them were active in at least one assay; those are over-represented in the sample as a whole. Calls of active or inactive are those of the source. Rule for the calls: active = growth percent below 10; inactive = the rest.
Classes used: TRUE = active, FALSE = inactive

INSERT INTO measurements (compound, assigned_category) VALUES
  ('O=C1C(=O)c2c(nc3ccc(C(F)(F)F)cn23)-c2ccccc21', 'TRUE'),
  ('O=C1Nc2ccc(Cl)cc2/C1=N/c1nc(-c2ccc(Cl)cc2)cs1', 'TRUE'),
  ('Cc1cc(Cl)cc(CN(Cc2ccccc2)Cc2c(O)ccc3ccccc23)c1O', 'FALSE'),
  ('Cc1ccc(C2CC(c3ccc(Nc4nc(NCCO)nc(NCCO)n4)cc3)=NN2c2ccc(Cl)cc2)cc1 (stereo not given)', 'FALSE'),
  ('C#C[C@@]1(O)[C@@H](CO)O[C@@H](n2cc(F)c3c(N)ncnc32)[C@@H]1O', 'TRUE'),
  ('CCc1n(Cc2ccc3ccccc3c2)c2ccccc2[n+]1Cc1ccc2ccccc2c1', 'FALSE'),
  ('Cc1ccn2c3c(c(C(=O)O)c2c1)C(=O)c1ccccc1C3=O', 'FALSE'),
  ('Cc1[nH]c2ncnc(Oc3ccc(NC(=O)Nc4ccc(Cl)c(C(F)(F)F)c4)cc3)c2c1C', 'FALSE'),
  ('CC1CCN(CCCCCOc2ccc3oc4cc(Cl)ccc4c(=O)c3c2)CC1', 'FALSE'),
  ('COc1cc(C(=O)N2CCN(c3ccccc3OC)CC2)c(NC(=O)c2cnccn2)cc1OCc1ccccc1', 'FALSE'),
  ('CCOC(=O)c1ccc(Nc2ncnc3ccc(NC(=O)c4ccccc4)cc23)cc1', 'FALSE'),
  ('COc1ccc(C2C(c3ccccc3)C(=O)N2c2cc(OC)c(OC)c(OC)c2)cc1I (stereo not given)', 'FALSE'),
  ('Nc1c(C(=O)Nc2ccccn2)sc2nc3c(cc12)C(=O)CCC3', 'FALSE'),
  ('COc1cc(NC(=O)c2cc(O)c(C/C=C(\C)CCC=C(C)C)c(O)c2)cc2c1O[C@]1(C)CC[C@@H](O)C(C)(C)[C@H]1C2', 'FALSE'),
  ('O=S(=O)(O)c1ccc(N=NSc2ccc3ccccc3c2)cc1', 'FALSE'),
  ('C[C@]12CC[C@@H]3c4ccc(O)cc4CC[C@H]3[C@@H]1C[C@H](O)C2', 'FALSE'),
  ('C=CCn1c(SCC(=O)Nc2ccc(C(=O)/C=C/c3ccc(Cl)cc3)cc2)nnc1-c1cc(OC)c(OC)c(OC)c1', 'FALSE'),
  ('C#Cc1ccccc1NC(=O)c1sc2nc3c(cc2c1N)CCCCCC3', 'FALSE'),
  ('Cc1ccc2nc3nc4ccc[nH]c4cc3c2c1', 'FALSE'),
  ('CN(C)c1ccc(-c2ccc3[nH]c(=O)nc(-c4ccc(F)cc4)c3c2)cn1', 'FALSE');

====

tested on: EKVX NSCLC; assay: NCI-60 one-dose screen, 48 h (100 = growth as untreated, 0 = no growth, -100 = all killed); conditions: 10 µM unless noted
About 83,000 compounds went through this panel and 20% of them were active in at least one assay; those are over-represented in the sample as a whole.
readout-name: growth (%)

INSERT INTO results (compound, assayed_system, readout_name, numeric_value) VALUES
  ('O=C(O)COc1ccc2c(=O)c3sc4c(=O)c5ccccc5c(=O)c4c3c(=O)c2c1', 'EKVX NSCLC', 'growth', 78.9),
  ('COc1ccc2c(c1)Oc1nc(N)c(C#N)c(N)c1C2Sc1ccc(SC)cc1 (stereo not given)', 'EKVX NSCLC', 'growth', 32.6),
  ('COc1ccc(-c2cn(-c3ccc(Cl)cc3)c(=S)[nH]2)cc1OC', 'EKVX NSCLC', 'growth', 74.7),
  ('Cc1c(Cl)cccc1NC(=O)c1sc2nc3c(cc2c1N)CN(Cc1ccccc1)CC3', 'EKVX NSCLC', 'growth', 55.5),
  ('N#Cc1nc(-c2ccccc2)oc1S(=O)(=O)NCC(c1ccc(Cl)cc1)N1CCCCC1 (stereo not given)', 'EKVX NSCLC', 'growth', 106);

====

system: HCT-15 colon; assay: NCI-60 one-dose screen, 48 h (100 = growth as untreated, 0 = no growth, -100 = all killed); conditions: 10 µM unless noted
This is part of a sample that, as a whole, favours compounds with a hit. Of some 83,000 tested, about 20% had one in any assay.
Reported growth values are given for each entry in this list.
readout-name: growth (%)

INSERT INTO results (compound, numeric_value) VALUES
  ('COc1ccc(Sc2[nH]c(C(C)=O)c3ccccc23)cc1', 53.9),
  ('O=C(Nc1cccc(-c2cccc(F)c2)c1)C1CCN(Cc2cccc3cccnc23)CC1', 19.5),
  ('COc1ccc2c(c1)C1(C(=O)N2)C(C#N)=C(c2ccccc2)Nc2c1c(-c1ccccc1)nn2-c1ccccc1 (centres undefined)', 85),
  ('COc1cc(N=Nc2cc(S(=O)(=O)O)cc3cc(S(=O)(=O)O)cc(O)c23)c(C)cc1N=Nc1c(S(=O)(=O)O)cc2cc(Nc3ccccc3)ccc2c1O', 110),
  ('COc1ccc(-c2[nH]c3ccc(OC)cc3c2C=C(C#N)C#N)cc1', 38.6),
  ('N#CCNc1ccc(C(=O)O)cc1', 105),
  ('O=C1CC(c2ccc(O)c(O)c2)Oc2cc(O)c([C@@H]3O[C@H](CO)[C@@H](O)[C@H](O)[C@H]3O)c(O)c21 (some centres undefined)', 102),
  ('Cc1nccc2c3ccc(OCc4cn(-c5ccc(Cl)cc5)nn4)cc3n(CC(C)C)c12', 18.7),
  ('OCCNc1nc(NCCO)nc(Nc2ccc(C3=NN(c4ccc(Cl)cc4)C(c4ccc(Cl)cc4)C3)cc2)n1 (centres undefined)', 48.4);

====

test system: MOLT-4 leukemia; experiment: NCI-60 one-dose screen, 48 h (100 = growth as untreated, 0 = no growth, -100 = all killed); settings: 10 µM unless noted
This is part of a sample that, as a whole, favours compounds with a hit. Of some 83,000 tested, about 20% had one in any assay.
Classes based on growth: range 1: < 30%; range 2: ≥ 30% and < 80%; range 3: ≥ 80%

INSERT INTO results (compound, assigned_category) VALUES
  ('COc1ccc2[nH]c(=O)c(/C=C/C(=O)c3ccccc3OC)cc2c1', 'range 1'),
  ('CCSc1ccc(C2C(Br)C(=O)N2c2cc(OC)c(OC)c(OC)c2)cc1 (stereo not given)', 'range 1'),
  ('COc1cc(C2=NNC(c3ccc(N(C)C)cc3)C2)cc(OC)c1OC (stereo not given)', 'range 2'),
  ('C#Cc1cccc(Nc2ncnc3ccc(NC(=O)c4ccccc4)cc23)c1', 'range 2'),
  ('Cc1cccc(C)c1NCc1nnc(-c2ccc(O)cc2)o1', 'range 3'),
  ('COc1cc2nc3c(=O)n(CCN(C)C)cnn3c(=O)c2cc1OC', 'range 3'),
  ('NS(=O)(=O)c1ccc(-n2nc(-c3ccccc3)ccc2=O)cc1', 'range 3'),
  ('N#Cc1c(-c2ccc(F)cc2)nc(N/N=C/c2c[nH]c3ccccc23)nc1N1CCOCC1', 'range 1'),
  ('Cn1cc(-c2ccc3c(c2)ncn3-c2ccc(CC(=O)Nc3cc(C(C)(C)C)on3)cc2)cn1', 'range 1');

====

Catalogue of growth values
system: RPMI-8226 leukemia; experiment: NCI-60 one-dose screen, 48 h (100 = growth as untreated, 0 = no growth, -100 = all killed); conditions: 10 µM unless noted
Compounds without any hit were thinned out: in the full panel of roughly 83,000, 20% have a hit.
readout-name: growth (%)

INSERT INTO assay_data (compound, numeric_value) VALUES
  ('CC(C)(C)CC(C)(C)Cc1ccc(OCCOCC[N+](C)(C)Cc2ccccc2)cc1', -53.4),
  ('Nc1c(C(=O)c2ccccc2)sc2nc(-c3cc4ccccc4o3)cc(-c3ccc(Cl)cc3)c12', 82.7),
  ('COc1ccc2c(c1)C1(C(=O)N2)C(C#N)=C(c2ccccc2)Nc2c1c(-c1ccccc1)nn2-c1ccccc1 (centres undefined)', 67.6),
  ('O=c1[nH]c2ccccc2cc1-c1nc2ccncc2[nH]1', -0.575),
  ('CN(C)CCCn1c2c(c3cc(-c4cccc(S(N)(=O)=O)c4)ccc3c1=O)C(=O)c1ccccc1-2', 70.3),
  ('C/C(=N\NC(=O)c1ccncc1)c1ccc(N)cc1', 97.5),
  ('O=C1NC(SCc2ccc(F)cc2)=N/C1=C/c1cccc(OCc2ccc(Cl)cc2)c1', 53.5),
  ('CSc1cccc(NC(=O)Nc2nc3c(C)cccc3s2)c1', 60.7),
  ('CN1C(=O)c2cc(Cl)nc3c(NC(=O)c4cccc(Cl)c4)c(Cl)c(NC(=O)c4cccc(Cl)c4)c1c23', 38.4);
